- details: in cyclohexanone, 298.15 K
measurement.type: solubility (mole fraction)

* OCc1ccc(O[C@@H]2O[C@H](CO)[C@@H](O)[C@H](O)[C@H]2O)cc1 | 0.00299

====

- details: in toluene, 303.15 K
measurement.type: solubility (mole fraction)

* OCc1ccc(O[C@@H]2O[C@H](CO)[C@@H](O)[C@H](O)[C@H]2O)cc1 | 0.00378

====

- details: in acetonitrile, 298.15 K
measurement.type: solubility (mole fraction)

- OCc1ccc(O[C@@H]2O[C@H](CO)[C@@H](O)[C@H](O)[C@H]2O)cc1: 0.0013

====

- details: in acetone, 273.15 K
measurement.type: solubility (mole fraction)

• OCc1ccc(O[C@@H]2O[C@H](CO)[C@@H](O)[C@H](O)[C@H]2O)cc1 = 0.00097

====

- details: in ethanol, 298.15 K
measurement.type: solubility (mole fraction)

* OCc1ccc(O[C@@H]2O[C@H](CO)[C@@H](O)[C@H](O)[C@H]2O)cc1 | 0.0022

====

- details: in n-butanol, 278.15 K
measurement.type: solubility (mole fraction)

- OCc1ccc(O[C@@H]2O[C@H](CO)[C@@H](O)[C@H](O)[C@H]2O)cc1: 0.0395

====

- details: in ethyl acetate, 278.15 K
measurement.type: solubility (mole fraction)

• OCc1ccc(O[C@@H]2O[C@H](CO)[C@@H](O)[C@H](O)[C@H]2O)cc1 = 0.002

====

- details: in cyclohexanone, 308.15 K
measurement.type: solubility (mole fraction)

• OCc1ccc(O[C@@H]2O[C@H](CO)[C@@H](O)[C@H](O)[C@H]2O)cc1 = 0.00396

====

- details: in toluene, 308.15 K
measurement.type: solubility (mole fraction)

* OCc1ccc(O[C@@H]2O[C@H](CO)[C@@H](O)[C@H](O)[C@H]2O)cc1 | 0.00431

====

- details: in n-butanol, 313.15 K
measurement.type: solubility (mole fraction)

• OCc1ccc(O[C@@H]2O[C@H](CO)[C@@H](O)[C@H](O)[C@H]2O)cc1 = 0.0633

====

- details: in n-butanol, 293.15 K
measurement.type: solubility (mole fraction)

• OCc1ccc(O[C@@H]2O[C@H](CO)[C@@H](O)[C@H](O)[C@H]2O)cc1 = 0.0486

====

- details: in acetonitrile, 293.15 K
measurement.type: solubility (mole fraction)

• OCc1ccc(O[C@@H]2O[C@H](CO)[C@@H](O)[C@H](O)[C@H]2O)cc1 = 0.00115

====

- details: in cyclohexanone, 278.15 K
measurement.type: solubility (mole fraction)

• OCc1ccc(O[C@@H]2O[C@H](CO)[C@@H](O)[C@H](O)[C@H]2O)cc1 = 0.00152

====

- details: in 1,4-dioxane, 298.15 K
measurement.type: solubility (mole fraction)

* OCc1ccc(O[C@@H]2O[C@H](CO)[C@@H](O)[C@H](O)[C@H]2O)cc1 | 0.0043

====

- details: in cyclohexane, 313.15 K
measurement.type: solubility (mole fraction)

• OCc1ccc(O[C@@H]2O[C@H](CO)[C@@H](O)[C@H](O)[C@H]2O)cc1 = 0.00396

====

- details: in acetonitrile, 288.15 K
measurement.type: solubility (mole fraction)

• OCc1ccc(O[C@@H]2O[C@H](CO)[C@@H](O)[C@H](O)[C@H]2O)cc1 = 0.001

Values compiled from BigSolDB 2.1.
